Values compiled from paper PMC9482650.

molecular target: SCRIB_1, Q14160; assay: holdup assay; set-up: key: below the threshold = too weak to quantify, mostly under pKd 3.1 to 4; settings: plain residues with an end cap or a label only (N-terminal biotin on a linker: ado-ado)
Sequence (Q14160 718-814): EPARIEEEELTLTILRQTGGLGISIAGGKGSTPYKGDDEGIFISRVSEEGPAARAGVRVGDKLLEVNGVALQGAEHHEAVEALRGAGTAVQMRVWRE
Provide the reported pKd of each item.
One number for each entry.

Query: In one line, give reported pKd of the entry FVHPILQSAV [PRKCA, P17252] .
Response: 4.57

More entries:
Query: In one line, give reported pKd of the entry TETASVCTKV [SLC23A1, Q9UHI7] .
Response: 3.99
